Overview of reported solubility across a group of compounds:
- procedure text: Aqueous solubility of the compound
- Format: physicochemical
Response body: numeric value in µM, unit text excluded.

>>> df
                                   compound  experimental_result
0  CNS(=O)(=O)c1ccc(N(C)C)c(Nc2ncnc3[nH]ccc23)c1                  330

Tell me measured solubility for `CNS(=O)(=O)c1cccc(Nc2ncnc3[nH]ccc23)c1` please. 50

* * *

- tested system: Serine/threonine-protein kinase TNNI3K (Homo sapiens, UniProt Q59H18)
- Sequence (Q59H18 whole entry): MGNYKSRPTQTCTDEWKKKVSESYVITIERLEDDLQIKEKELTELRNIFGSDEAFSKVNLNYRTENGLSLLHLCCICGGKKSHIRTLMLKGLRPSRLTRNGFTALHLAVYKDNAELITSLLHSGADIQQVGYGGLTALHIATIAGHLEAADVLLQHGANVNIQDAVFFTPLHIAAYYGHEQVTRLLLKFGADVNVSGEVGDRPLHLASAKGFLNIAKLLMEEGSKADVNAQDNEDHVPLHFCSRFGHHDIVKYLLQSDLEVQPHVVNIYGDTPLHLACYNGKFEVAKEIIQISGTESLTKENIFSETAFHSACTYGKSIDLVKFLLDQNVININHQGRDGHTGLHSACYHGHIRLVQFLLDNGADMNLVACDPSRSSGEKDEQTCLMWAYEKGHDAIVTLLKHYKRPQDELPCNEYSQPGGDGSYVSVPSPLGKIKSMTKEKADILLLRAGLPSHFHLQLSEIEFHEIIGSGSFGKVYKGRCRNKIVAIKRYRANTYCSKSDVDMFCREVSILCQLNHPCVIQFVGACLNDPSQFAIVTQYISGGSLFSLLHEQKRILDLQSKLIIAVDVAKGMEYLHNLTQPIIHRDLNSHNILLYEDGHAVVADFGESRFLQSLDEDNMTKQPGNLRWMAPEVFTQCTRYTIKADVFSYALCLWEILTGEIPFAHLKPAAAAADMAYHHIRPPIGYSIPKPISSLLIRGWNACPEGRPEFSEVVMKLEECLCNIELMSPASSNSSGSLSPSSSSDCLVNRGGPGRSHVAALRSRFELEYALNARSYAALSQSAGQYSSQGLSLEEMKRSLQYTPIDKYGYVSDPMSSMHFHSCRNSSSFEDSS
- procedure text: Inhibition of human myc-tagged TNNI3K autophosphorylation overexpressed in HEKMSRII cells preincubated for 30 mins followed by pervanadate solution addition measured after 20 mins by DELFIA
- Assay type: cell-based
Exam item: assign Yes to entries whose IC50 is below 10 nM and No to entries at or above 10 nM. Note that a value of exactly 10 nM receives No.

Hello, I'm reviewing records and need to know if IC50 of `CNS(=O)(=O)c1ccc(N(C)C)c(Nc2ncnc3[nH]cc(Br)c23)c1` is below 10 nM. Could you check? Yes

Hello, I'm reviewing records and need to know if IC50 of `CNS(=O)(=O)c1ccc(N(C)C)c(Nc2ncnc3[nH]ccc23)c1` is below 10 nM. Could you check? No

Hello, I'm reviewing records and need to know if IC50 of `CNS(=O)(=O)c1ccc(N2CCOCC2)c(Nc2ncnc3[nH]cc(Br)c23)c1` is below 10 nM. Could you check? Yes

Hello, I'm reviewing records and need to know if IC50 of `CNS(=O)(=O)c1ccc(N2CCOCC2)c(Nc2ncnc3[nH]c(Br)cc23)c1` is below 10 nM. Could you check? No

* * *

- tested system: Serine/threonine-protein kinase TNNI3K (Homo sapiens)
- procedure text: Displacement of 5-({[2-({[3-({4-[(5-hydroxy-2-methylphenyl)amino]-2-pyrimidinyl}amino)phenyl]carbonyl}amino)-ethyl]amino}carbonyl)-2-(6-hydroxy-3-oxo-3H-xanthen-9-yl)benzoic acid from His6-MBP-TEV-full length human TNNI3K expressed in Baculovirus expression system after 60 mins by fluorescence polarization assay
quantity: pIC50
# pIC50 = -log10(concentration in molar units)

Observe how each entry below is paired with its result.
>>> print(df.to_string())
                                   compound  experimental_result
0  CNS(=O)(=O)c1cccc(Nc2ncnc3[nH]cc(C(C)C)c23)c1                 6.90
1    CNS(=O)(=O)c1cccc(Nc2ncnc3[nH]ncc23)c1                 7.30

Tell me measured pIC50 for `CNS(=O)(=O)c1cccc(Nc2nc(Cl)nc3[nH]cnc23)c1` please. 4.80

Tell me measured pIC50 for `CNS(=O)(=O)c1cccc(Nc2ncnc3[nH]c(-c4cccc(C)c4)cc23)c1` please. 7.89

Tell me measured pIC50 for `CNS(=O)(=O)c1cccc(Nc2ncnc3[nH]c(-c4ccccc4C)cc23)c1` please. 7.89

* * *

- tested system: Serine/threonine-protein kinase TNNI3K (Homo sapiens)
- procedure text: Displacement of 5-({[2-({[3-({4-[(5-hydroxy-2-methylphenyl)amino]-2-pyrimidinyl}amino)phenyl]carbonyl}amino)-ethyl]amino}carbonyl)-2-(6-hydroxy-3-oxo-3H-xanthen-9-yl)benzoic acid from His6-MBP-TEV-full length human TNNI3K expressed in Baculovirus expression system after 60 mins by fluorescence polarization assay
Exam item: assign yes (1) to entries whose IC50 is below 100 nM and no (0) to entries at or above 100 nM. Note that a value of exactly 100 nM receives no (0).

Hello, I'm reviewing records and need to know if IC50 of `CNS(=O)(=O)c1cccc(Nc2ncnc3[nH]cc(-c4ccc(OC)cc4)c23)c1` is below 100 nM. Could you check? yes (1)

Hello, I'm reviewing records and need to know if IC50 of `CNS(=O)(=O)c1ccc(Cl)c(Nc2ncnc3[nH]ccc23)c1` is below 100 nM. Could you check? yes (1)

Hello, I'm reviewing records and need to know if IC50 of `CNS(=O)(=O)c1cccc(Nc2ncnc3[nH]cc(F)c23)c1` is below 100 nM. Could you check? no (0)

Hello, I'm reviewing records and need to know if IC50 of `CNS(=O)(=O)c1cccc(Nc2ncnc3[nH]c(-c4ccccc4)cc23)c1` is below 100 nM. Could you check? yes (1)

Hello, I'm reviewing records and need to know if IC50 of `CNS(=O)(=O)c1ccc(C)c(Nc2ncnc3[nH]cnc23)c1` is below 100 nM. Could you check? no (0)

Hello, I'm reviewing records and need to know if IC50 of `CNS(=O)(=O)c1cncc(Nc2ncnc3[nH]ccc23)c1` is below 100 nM. Could you check? no (0)
